protocol description: Pharmacokinetic experiments in male SD rats
Assay type: in vivo, rat
condition context: male, SD, rat, plasma, po, gavage, 10 mg/kg
property label: half-life (h)
Answers are plain numbers, in h.

Query string: State the recorded half-life for this entry: O=C(c1ccc(F)cn1)N1CCC2(CC(O)c3cc(-c4ccccc4C4CC4)ccc32)C1 (stereo not shown)
Result string: 1.88

====

measured target: hTRPV3 (Homo sapiens)
Construct: expressed in transfected cells; host or cells: HEK-293
Sequence (Q8NET8 whole entry): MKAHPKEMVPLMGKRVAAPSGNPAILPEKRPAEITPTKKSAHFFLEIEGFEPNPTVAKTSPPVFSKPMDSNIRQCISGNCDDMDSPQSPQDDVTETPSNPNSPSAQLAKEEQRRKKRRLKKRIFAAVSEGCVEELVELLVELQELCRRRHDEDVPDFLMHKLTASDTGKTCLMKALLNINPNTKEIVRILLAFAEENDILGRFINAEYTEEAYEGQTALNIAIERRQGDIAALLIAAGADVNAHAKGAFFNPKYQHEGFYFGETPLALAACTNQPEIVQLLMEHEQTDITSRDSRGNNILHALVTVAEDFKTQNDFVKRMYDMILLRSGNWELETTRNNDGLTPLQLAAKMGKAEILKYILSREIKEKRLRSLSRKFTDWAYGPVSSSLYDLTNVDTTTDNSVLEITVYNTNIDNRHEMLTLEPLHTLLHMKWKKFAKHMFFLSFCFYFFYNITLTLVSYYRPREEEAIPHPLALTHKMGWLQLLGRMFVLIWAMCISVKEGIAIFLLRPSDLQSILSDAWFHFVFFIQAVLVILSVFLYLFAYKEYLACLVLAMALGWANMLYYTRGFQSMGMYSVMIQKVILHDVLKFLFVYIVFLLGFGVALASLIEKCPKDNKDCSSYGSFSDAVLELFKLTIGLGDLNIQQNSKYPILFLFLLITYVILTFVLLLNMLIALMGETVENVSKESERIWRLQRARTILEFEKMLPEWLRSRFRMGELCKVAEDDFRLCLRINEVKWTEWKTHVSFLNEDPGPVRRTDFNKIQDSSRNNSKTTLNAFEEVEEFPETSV
protocol description: Whole cell patch clamp inhibition rate test on HEK-293 cells instantaneously expressing TRPV3
Format: cell-based
condition context: HEK293; hTRPV3, single concentration 0.3 μM
Please go through the items and note down their inhibition at 0.3 µM.

Worked set:
>>> result("O=C(c1ccc(F)cn1)N1CCC2(CC(O)c3cc(-c4ccccc4C4CC4)ccc32)C1 (stereo not shown)")
"70 to 100%"
>>> result("Cc1nc(C(=O)N2CCC3(CC(O)c4cc(-c5ccccc5C5CC5)ccc43)C2)ccc1O (stereo not shown)")
"< 25%"
>>> result("O=C(c1ccc(Cl)cn1)N1CCC2(CC(O)c3cc(-c4ccccc4C4CC4)ccc32)C1 (stereo not shown)")
"70 to 100%"
>>> result("O=C(c1ccc(F)cn1)N1CCC2(C[C@H](O)c3cc(-c4ccccc4C4CC4)ccc32)C1 (stereo partly shown)")
"< 25%"
>>> result("O=C(c1cccc(C2CC2)n1)N1CC[C@]2(C[C@@H](O)c3cc(-c4ccccc4C4CC4)ccc32)C1")
"< 25%"

Dear colleague, could you please provide inhibition at 0.3 µM for the compounds listed below?
1. CC(C)c1ccccc1-c1ccc2c(c1)C(O)CC21CCN(C(=O)c2ccccn2)C1 (stereo not shown)
2. CC(C)c1ccccc1-c1ccc2c(c1)[C@@H](O)C[C@]21CCN(C(=O)c2cccc(C3CC3)n2)C1
3. O=C(c1csc(Cl)n1)N1CC[C@]2(C[C@@H](O)c3cc(-c4ccccc4C4CC4)ccc32)C1
4. O=C(c1ccc(F)cn1)N1CCC2(C1)CC(O)(C(F)(F)F)c1cc(-c3ccccc3C3CC3)ccc12 (stereo not shown)
5. CC(C)c1ccccc1-c1ccc2c(c1)C(O)CC21CCN(C(=O)c2cc3cccn3cn2)C1 (stereo not shown)
6. O=C(c1ccc(F)cn1)N1CCC2(CC1)CC(O)c1cc(-c3ccccc3C3CC3)ccc12 (stereo not shown)

Result string:
1. 70 to 100%
2. < 25%
3. < 25%
4. < 25%
5. 50 to 70%
6. 25 to 50%

Dear colleague, could you please provide inhibition at 0.3 µM for the compounds listed below?
1. O=C(c1ccc(F)cn1)N1CCC2(CCC(O)c3cc(-c4ccccc4C4CC4)ccc32)C1 (stereo not shown)
2. Cc1cccc(C(=O)N2CCC3(CC(O)c4cc(-c5ccccc5C5CC5)ccc43)C2)n1 (stereo not shown)
3. Cc1cnc(C(=O)N2CCC3(CC(O)c4cc(-c5ccccc5C(C)C)ccc43)C2)cn1 (stereo not shown)
4. CC(C)c1ccccc1-c1ccc2c(c1)[C@@H](O)C[C@@]21CCN(C(=O)c2csc(Cl)n2)C1

Result string:
1: < 25%; 2: 70 to 100%; 3: 70 to 100%; 4: < 25%

Query string: State the recorded inhibition at 0.3 µM for this entry: O=C(c1ccc(F)cn1)N1CCC2(CC(O)c3cc(-c4ccccc4OC(F)(F)F)ccc32)C1 (stereo not shown)
Result string: 50 to 70%
